molecular target: KDM7C(PHD) (Homo sapiens); construct: made in house; assay: AlphaScreen displacement of H3K4me3-Bn from His-KDM7C(PHD); type: binding; conditions: AlphaScreen; 25 nM KDM7C(PHD) and 6.25 nM peptide; n ≥ 3; read-out: IC50 for displacement of H3K4me3-Bn from His-KDM7C(PHD)
Sequence (O75151 5-56 limits assumed): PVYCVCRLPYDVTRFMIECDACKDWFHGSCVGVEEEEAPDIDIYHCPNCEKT
RECORDED METRIC: IC50 (µM)
Numbers only, in µM.

CCCCc1oc2ccccc2c1C(=O)c1ccc(OCCCN)cc1 [Compound 10]	359
CCCCc1oc2ccccc2c1C(=O)c1cc(I)c(OCCN(CC)CC)c(I)c1 [AMI, amiodarone, reference compound]	84
Cc1oc2ccccc2c1C(=O)c1ccccc1OCCC[N+](C)(C)C.[I-] [Compound 7b]	533
CCCCc1oc2ccccc2c1C(=O)c1cc(I)c(OCCC[N+](C)(C)C)c(I)c1.[I-] [WAG-005, reference compound]	740
Cc1sc2ccccc2c1C(=O)c1ccc(OCCC[N+](C)(C)C)cc1 [Compound 2c]	501

Give measured IC50 for every item shown.
1. CCCCc1oc2ccccc2c1C(=O)c1cc(I)c(OCC[N+](C)(C)C)c(I)c1.[I-] [WAG-003, reference compound]
2. CCCCc1oc2ccccc2c1C(=O)c1ccccc1OCCC[N+](C)(C)C.[I-] [Compound 7a]
3. CCCCc1oc2ccccc2c1C(=O)c1cc(F)c(OCCC[N+](C)(C)C)c(F)c1 [Compound 8b]

1. 976
2. 1290
3. 220

###

target: KDM7B (PHD-JmjC) (Homo sapiens); construct: A dual-domain construct of KDM7A/B(PHD-JmjC), consisting of a JmjC domain in addition to the PHD-finger; His; made in house; test: AlphaScreen displacement of H3K4me3-Bn from His-KDM7B(PHD-JmjC); type: binding; conditions: AlphaScreen displacement of H3K4me3-Bn; n = 3; NI = No inhibition seen at 100 μM; read-out: IC50 KDM7B (PHD-JmjC) (Displacement)
Sequence (Q9UPP1 37-483 limits assumed): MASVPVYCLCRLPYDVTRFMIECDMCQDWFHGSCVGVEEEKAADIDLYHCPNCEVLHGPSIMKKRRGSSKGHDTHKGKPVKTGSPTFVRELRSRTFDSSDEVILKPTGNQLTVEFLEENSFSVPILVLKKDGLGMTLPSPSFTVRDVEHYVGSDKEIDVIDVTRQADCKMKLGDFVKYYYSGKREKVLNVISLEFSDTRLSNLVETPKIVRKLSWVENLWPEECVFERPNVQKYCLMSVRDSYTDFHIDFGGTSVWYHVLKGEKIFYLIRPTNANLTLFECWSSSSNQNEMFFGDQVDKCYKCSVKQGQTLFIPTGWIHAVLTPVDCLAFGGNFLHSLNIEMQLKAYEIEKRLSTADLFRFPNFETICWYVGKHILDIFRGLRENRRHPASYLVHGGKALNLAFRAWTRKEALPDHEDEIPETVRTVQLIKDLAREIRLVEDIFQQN
pIC50: −log10 of the molar value.
RECORDED METRIC: pIC50

CCCCc1oc2ccccc2c1C(=O)c1cc(I)c(OCC[N+](C)(C)C)c(I)c1.[I-] [WAG-003, reference compound]	< 4.00

Below is a list of compounds. For each, state its recorded pIC50.
1. CCCCc1oc2ccccc2c1C(=O)c1cc(I)c(OCCC[N+](C)(C)C)c(I)c1.[I-] [WAG-005, reference compound]
2. CCCCc1oc2ccccc2c1C(=O)c1ccc(OCCCN(C)C)cc1

1: < 4.00; 2: < 4.00
